Source of measurements: patent US5043450A

Provide the recorded MIC for the entries that follow.
Test system: S. epidermidis IID 866
TEST_DESCRIPTION: Antibacterial spectra, MIC
Assay type: cell-based
SETUP_CONDITIONS: Staphylococcus epidermidis, IID866
# value in µg/mL; strip the unit string

In: // returns reported MIC for input CCNCC1CCN(c2c(F)cc3c(=O)c(C(=O)O)cn(C4CC4)c3c2OC)C1 (stereo not shown)
Out: 0.025

In: // returns reported MIC for input COc1c(N2CCC(CN)C2)c(F)cc2c(=O)c(C(=O)O)cn(C3CC3)c12 (stereo not shown)
Out: 0.05

In: // returns reported MIC for input CNCC1CCN(c2c(F)cc3c(=O)c(C(=O)O)cn(C4CC4)c3c2OC)C1 (stereo not shown)
Out: 0.05

In: // returns reported MIC for input COc1c(N2C[C@@H](C)[C@H](N)C2)c(F)cc2c(=O)c(C(=O)O)cn(C3CC3)c12 (relative stereo)
Out: 0.1

In: // returns reported MIC for input COc1c(N2C[C@@H](N)[C@@H](C)C2)c(F)cc2c(=O)c(C(=O)O)cn(C3CC3)c12 (relative stereo)
Out: 0.1

In: // returns reported MIC for input COc1c(N2CCC(N)C2)c(F)cc2c(=O)c(C(=O)O)cn(C3CC3)c12 (stereo not shown)
Out: 0.1

In: // returns reported MIC for input COc1c(N2CCNC(C)C2)c(F)cc2c(=O)c(C(=O)O)cn(C3CC3)c12 (stereo not shown)
Out: 0.1
